ASSAY_TEXT: Biodistribution of Beta-Carotene after periorbital skin administration (Example 4)
Type: in vivo, cynomolgus monkeys
CONDITION_DESCRIPTION: cynomolgus monkey, retina, topical; 0.5 h; 492.59 μg/left eye periorbital skin; read-out: Drug Concentration in Tissue, Retina
REPORTED_METRIC: concentration at 0.5 h (ng/g)

compound="CC1=C(/C=C/C(C)=C/C=C/C(C)=C/C=C/C=C(C)/C=C/C=C(C)/C=C/C2=C(C)CCCC2(C)C)C(C)(C)CCC1 [Beta-Carotene, β-Carotene]" reported_metric="concentration at 0.5 h" unit_abbrev=ng/g observed_value=0

---

ASSAY_TEXT: Biodistribution of Beta-Carotene after periorbital skin administration (Example 4)
Assay type: in vivo, cynomolgus monkeys
CONDITION_DESCRIPTION: cynomolgus monkey, upper eyelid, topical, 507.6 μg/left eye; 3 h; 507.60 μg/left eye periorbital skin; read-out: Drug Concentration in Tissue, Upper eyelid
REPORTED_METRIC: concentration at 3 h

smiles_string=CC1=C(/C=C/C(C)=C/C=C/C(C)=C/C=C/C=C(C)/C=C/C=C(C)/C=C/C2=C(C)CCCC2(C)C)C(C)(C)CCC1 observed_value="36000 ng/g"

---

ASSAY_TEXT: Biodistribution of JV-DE1 after single periorbital skin administration (Example 3)
Assay type: in vivo, cynomolgus monkeys
CONDITION_DESCRIPTION: cynomolgus monkey, right vitreous humor, topical, 160.58 μg/right eye; 3 h; 160.580 μg/right eye periorbital skin; read-out: Drug Concentration in Tissue, Right vitreous humor
REPORTED_METRIC: concentration at 3 h (ng/g)

smiles_string=CC(C)Oc1ccc(Cc2ccc(NC3=NCCN3)cc2)cc1 observed_value=7.79

---

ASSAY_TEXT: Biodistribution of Beta-Carotene after periorbital skin administration (Example 4)
Assay type: in vivo, cynomolgus monkeys
CONDITION_DESCRIPTION: cynomolgus monkey, upper eyelid, topical; 6 h; 526.32 μg/left eye periorbital skin; read-out: Drug Concentration in Tissue, Upper eyelid
REPORTED_METRIC: concentration at 6 h (ng/g)

smiles_string=CC1=C(/C=C/C(C)=C/C=C/C(C)=C/C=C/C=C(C)/C=C/C=C(C)/C=C/C2=C(C)CCCC2(C)C)C(C)(C)CCC1 observed_value=0

---

ASSAY_TEXT: Biodistribution of JV-DE1 after single periorbital skin administration (Example 3)
Assay type: in vivo, cynomolgus monkeys
CONDITION_DESCRIPTION: cynomolgus monkey, right cornea, topical, 160.58 μg/right eye; 3 h; 160.580 μg/right eye periorbital skin; read-out: Drug Concentration in Tissue, Right cornea
REPORTED_METRIC: concentration at 3 h (ng/g)

smiles_string=CC(C)Oc1ccc(Cc2ccc(NC3=NCCN3)cc2)cc1 reported_metric="concentration at 3 h" observed_value=27.9

---

ASSAY_TEXT: Biodistribution of JV-DE1 after single periorbital skin administration (Example 3)
Type: in vivo, cynomolgus monkeys
CONDITION_DESCRIPTION: cynomolgus monkey, right vitreous humor, topical, 179.12 μg/right eye; 0.5 h; 179.120 μg/right eye periorbital skin; read-out: Drug Concentration in Tissue, Right vitreous humor
REPORTED_METRIC: concentration at 0.5 h

compound="CC(C)Oc1ccc(Cc2ccc(NC3=NCCN3)cc2)cc1 [JV-DE1]" observed_value="15.2 ng/g"

---

ASSAY_TEXT: Biodistribution of Beta-Carotene after periorbital skin administration (Example 4)
Assay type: in vivo, cynomolgus monkeys
CONDITION_DESCRIPTION: cynomolgus monkey, vitreous humor, topical; 0.5 h; 492.59 μg/left eye periorbital skin; read-out: Drug Concentration in Tissue, Vitreous humor
REPORTED_METRIC: concentration at 0.5 h (ng/g)

compound="CC1=C(/C=C/C(C)=C/C=C/C(C)=C/C=C/C=C(C)/C=C/C=C(C)/C=C/C2=C(C)CCCC2(C)C)C(C)(C)CCC1 [Beta-Carotene, β-Carotene]" unit_abbrev=ng/g observed_value=0

---

ASSAY_TEXT: Biodistribution of JV-DE1 after single periorbital skin administration (Example 3)
Format: in vivo, cynomolgus monkeys
CONDITION_DESCRIPTION: cynomolgus monkey, right cornea, topical, 159.26 μg/right eye; 24 h; 159.260 μg/right eye periorbital skin; read-out: Drug Concentration in Tissue, Right cornea
REPORTED_METRIC: concentration at 24 h (ng/g)

smiles_string=CC(C)Oc1ccc(Cc2ccc(NC3=NCCN3)cc2)cc1 unit_abbrev=ng/g observed_value=5.5

---

ASSAY_TEXT: Biodistribution of DHA after periorbital skin administration (Example 4)
Type: in vivo, cynomolgus monkeys
CONDITION_DESCRIPTION: cynomolgus monkey, plasma, topical, 7017.66 μg/left eye, 6 h; 7017.66 μg/left eye periorbital skin; animal 103; read-out: Drug Concentration in Plasma
REPORTED_METRIC: concentration at 6 h (ng/mL)

smiles_string=CC/C=C\C/C=C\C/C=C\C/C=C\C/C=C\C/C=C\CCC(=O)O unit_abbrev=ng/mL observed_value=2100

---

ASSAY_TEXT: Biodistribution of DHA after periorbital skin administration (Example 4)
Type: in vivo, cynomolgus monkeys
CONDITION_DESCRIPTION: cynomolgus monkey, left vitreous humor, topical, 7017.66 μg/left eye, 6 h; 7017.66 μg/left eye periorbital skin; BLQ given 0; read-out: Drug Concentration in Tissue, Left vitreous humor
REPORTED_METRIC: concentration at 6 h (ng/g)

smiles_string=CC/C=C\C/C=C\C/C=C\C/C=C\C/C=C\C/C=C\CCC(=O)O reported_metric="concentration at 6 h" unit_abbrev=ng/g observed_value=0

---

ASSAY_TEXT: Biodistribution of Beta-Carotene after periorbital skin administration (Example 4)
Type: in vivo, cynomolgus monkeys
CONDITION_DESCRIPTION: cynomolgus monkey, cornea, topical; 0.5 h; 492.59 μg/left eye periorbital skin; read-out: Drug Concentration in Tissue, Cornea
REPORTED_METRIC: concentration at 0.5 h

compound="CC1=C(/C=C/C(C)=C/C=C/C(C)=C/C=C/C=C(C)/C=C/C=C(C)/C=C/C2=C(C)CCCC2(C)C)C(C)(C)CCC1 [Beta-Carotene, β-Carotene]" reported_metric="concentration at 0.5 h" observed_value="0 ng/g"

---

ASSAY_TEXT: Biodistribution of DHA after periorbital skin administration (Example 4)
Assay type: in vivo, cynomolgus monkeys
CONDITION_DESCRIPTION: cynomolgus monkey, left retina, topical, 6567.89 μg/left eye, 0.5 h; 6567.89 μg/left eye periorbital skin; read-out: Drug Concentration in Tissue, Left retina
REPORTED_METRIC: concentration at 0.5 h (ng/g)

smiles_string=CC/C=C\C/C=C\C/C=C\C/C=C\C/C=C\C/C=C\CCC(=O)O observed_value=111000

---

ASSAY_TEXT: Biodistribution of DHA after periorbital skin administration (Example 4)
Format: in vivo, cynomolgus monkeys
CONDITION_DESCRIPTION: cynomolgus monkey, left cornea, topical, 6768.26 μg/left eye, 3 h; 6768.26 μg/left eye periorbital skin; read-out: Drug Concentration in Tissue, Left cornea
REPORTED_METRIC: concentration at 3 h (ng/g)

compound="CC/C=C\\C/C=C\\C/C=C\\C/C=C\\C/C=C\\C/C=C\\CCC(=O)O [DHA, docosahexaenoic acid]" reported_metric="concentration at 3 h" observed_value=21600

---

ASSAY_TEXT: Biodistribution of Beta-Carotene after periorbital skin administration (Example 4)
Format: in vivo, cynomolgus monkeys
CONDITION_DESCRIPTION: cynomolgus monkey, cornea, topical, 507.6 μg/left eye; 3 h; 507.60 μg/left eye periorbital skin; read-out: Drug Concentration in Tissue, Cornea
REPORTED_METRIC: concentration at 3 h (ng/g)

smiles_string=CC1=C(/C=C/C(C)=C/C=C/C(C)=C/C=C/C=C(C)/C=C/C=C(C)/C=C/C2=C(C)CCCC2(C)C)C(C)(C)CCC1 observed_value=0

---

ASSAY_TEXT: Biodistribution of JV-DE1 after single periorbital skin administration (Example 3)
Assay type: in vivo, cynomolgus monkeys
CONDITION_DESCRIPTION: cynomolgus monkey, right retina, topical, 160.58 μg/right eye; 3 h; 160.580 μg/right eye periorbital skin; read-out: Drug Concentration in Tissue, Right retina
REPORTED_METRIC: concentration at 3 h (ng/g)

molecule="CC(C)Oc1ccc(Cc2ccc(NC3=NCCN3)cc2)cc1 [JV-DE1]" observed_value=16700

---

ASSAY_TEXT: Biodistribution of JV-DE1 after single periorbital skin administration (Example 3)
Assay type: in vivo, cynomolgus monkeys
CONDITION_DESCRIPTION: cynomolgus monkey, right cornea, topical, 179.12 μg/right eye; 0.5 h; 179.120 μg/right eye periorbital skin; read-out: Drug Concentration in Tissue, Right cornea
REPORTED_METRIC: concentration at 0.5 h (ng/g)

molecule="CC(C)Oc1ccc(Cc2ccc(NC3=NCCN3)cc2)cc1 [JV-DE1]" observed_value=39.6
